Can you tell me pull-down binding Z-score for the items I'm about to list?
System: TO-N3-2 (biotin conjugate)
test_protocol: pull-down binding Z-score (relative to library population); higher = stronger binding
assay_conditions: RNA library: Library-2
Answer using only a numeral; do not append any unit.

The sequence identified as AAGACACUAUCUGACAACAACAGGGCUCUU [hsa-mir-550b-2] registered its pull-down binding Z-score at 0.234

The sequence identified as CCUCACCUGCUGAGAG [hsa-mir-3670-3_3670-2_3670-1_3670-4] registered its pull-down binding Z-score at 0.19

The sequence identified as GAAAUGUGUGGAAGAUGGCAUUUC [hsa-mir-4482] registered its pull-down binding Z-score at 0.278

The sequence identified as UUGUAAUAGUGUAGAAUGUUGGUUAAC [hsa-mir-591] registered its pull-down binding Z-score at 0.44

The sequence identified as GGAGACGGGUCUUUCUC [hsa-mir-1208] registered its pull-down binding Z-score at 0.758

The sequence identified as `CCUUGUAGGUUUGUUACAGACACACCUAAAGG` registered its pull-down binding Z-score at -0.614

The sequence identified as CUGGUGUUCUCACGCAAAGUGGCCAGGGUGUGGGAGACUAGA [hsa-mir-7161] registered its pull-down binding Z-score at 1.34

The sequence identified as AUCUCCUUUAGGAAAACCUUCUGUGGGGAGU [hsa-mir-1296] registered its pull-down binding Z-score at -0.641

The sequence identified as GCGGGGUGUGGUGGGGCUGGGGCUGGCCCCCUCCUCACACCUC [hsa-mir-6800] registered its pull-down binding Z-score at 3.96

The sequence identified as GAUGGGAUUAGAAACCAUAUGUCUCAUC [hsa-mir-3617] registered its pull-down binding Z-score at -0.438

The sequence identified as `GGCUUCAUUUAAUUAUUUGAAGUC` registered its pull-down binding Z-score at -1.75

The sequence identified as AUCAUAAUAAAGGUGUCAUGAU [hsa-mir-3682] registered its pull-down binding Z-score at -0.694

The sequence identified as `CAUCAUAUGCAGCUUUUGCUACUGCUCAAGAAGCUUAUGAGCAGGCUGUUGCUAAUGGUG` registered its pull-down binding Z-score at -0.238

The sequence identified as CAAGGACCUGCCUAAAGAAAUCACUGUUGCUACAUCACGAACGCUUUCUUAUUACAAAUUGGGAGCUUCGCAGCGUGUAGCAGGUGACUCAGGUUUUG [DMSMaPseq_invitro_SARS-CoV-2_Motif_486] registered its pull-down binding Z-score at 0.921

The sequence identified as UAAAAUGAAUUAUCAAGUUA [DMSMaPseq_invitro_SARS-CoV-2_Motif_325] registered its pull-down binding Z-score at -1.2

The sequence identified as AGAACUUUGGUUUU [hsa-mir-4434] registered its pull-down binding Z-score at -1.38

The sequence identified as GAGGGAUGAGUGCACUUCACCUGC [hsa-mir-4435-1_4435-2] registered its pull-down binding Z-score at 0.859

The sequence identified as GAGAACUCACGGUGCCUGUGGUUCGA [hsa-mir-3125] registered its pull-down binding Z-score at 1.49

The sequence identified as UGCUUGACCUGAAUGCUACAAGGCA [hsa-mir-103b-2] registered its pull-down binding Z-score at -0.0962

The sequence identified as GCCAGCAACCUGAUUACCCCUCUUUGGC [hsa-mir-6851] registered its pull-down binding Z-score at 0.533

The sequence identified as CCGACUCGGGCUCUGGAGCAGUC [hsa-mir-152] registered its pull-down binding Z-score at 0.692
